Hello, the source for this data is DBAASP, in case you need it.

# System: Escherichia coli ATCC 11775
MEASURED METRIC: MIC (µM)

>>> val("CC[C@H](C)[C@H](NC(=O)[C@@H]1CCCN1C(=O)[C@H](CCCN=C(N)N)NC(=O)[C@@H]1CCCN1C(=O)[C@H](Cc1cnc[nH]1)NC(=O)[C@H](CO)NC(=O)[C@@H](NC(=O)[C@@H]1CCCN1C(=O)[C@H](CCCN=C(N)N)NC(=O)[C@@H]1CCCN1C(=O)[C@H](CO)NC(=O)[C@H](Cc1ccc(O)cc1)NC(=O)[C@@H]1CCCN1C(=O)[C@H](CCCCN)NC(=O)[C@@H]1CCCN1C(=O)[C@H](CCCCN)NC(=O)CN)[C@@H](C)O)C(=O)N[C@@H](CCCN=C(N)N)C(=O)N[C@H](C(=O)O)C(C)C")
1.1

###

Catalogue of log10(MIC) values
# Tested on: Salmonella enterica subsp. enterica serovar Typhimurium ATCC 14028
MEASURED METRIC: log10(MIC) (log10 of the value in µM)

>>> val("CC[C@H](C)[C@H](NC(=O)[C@H](CCCCN)NC(=O)[C@H](CCCCN)NC(=O)[C@H](Cc1ccccc1)NC(=O)[C@H](CC(C)C)NC(=O)[C@H](CCCCN)NC(=O)[C@H](Cc1c[nH]c2ccccc12)NC(=O)[C@H](CCCCN)NC(=O)[C@@H](NC(=O)[C@H](CCCN=C(N)N)NC(=O)[C@@H](NC(=O)[C@H](CCCN=C(N)N)NC(=O)[C@@H](NC(=O)[C@H](CCCN=C(N)N)NC(=O)[C@@H](N)Cc1ccccc1)[C@@H](C)CC)C(C)C)C(C)C)C(N)=O")
0.60
>>> val("CC(C)C[C@H](NC(=O)[C@H](CC(C)C)NC(=O)[C@H](CCCCN)NC(=O)[C@H](CCCCN)NC(=O)[C@H](CC(C)C)NC(=O)[C@H](CC(C)C)NC(=O)[C@H](CCCCN)NC(=O)[C@H](CCCCN)NC(=O)[C@H](CC(C)C)NC(=O)[C@H](Cc1c[nH]c2ccccc12)NC(=O)[C@@H](N)CCCCN)C(N)=O")
0.15
>>> val("CC[C@H](C)[C@H](NC(=O)[C@@H]1CCCN1C(=O)[C@H](CCCCN)NC(=O)[C@@H]1CCCN1C(=O)[C@H](Cc1cnc[nH]1)NC(=O)[C@H](CO)NC(=O)[C@@H](NC(=O)[C@@H]1CCCN1C(=O)[C@H](CCCN=C(N)N)NC(=O)[C@@H]1CCCN1C(=O)[C@H](CO)NC(=O)[C@H](Cc1ccc(O)cc1)NC(=O)[C@@H]1CCCN1C(=O)[C@H](CCCN=C(N)N)NC(=O)[C@@H]1CCCN1C(=O)[C@H](CCCCN)NC(=O)CN)[C@@H](C)O)C(=O)N[C@@H](CCCN=C(N)N)C(=O)N[C@H](C(=O)O)C(C)C")
1.40
>>> val("CC(C)C[C@H](NC(=O)[C@H](Cc1c[nH]c2ccccc12)NC(=O)CNC(=O)[C@H](CC(C)C)NC(=O)[C@@H](N)Cc1ccccc1)C(=O)N[C@@H](Cc1ccccc1)C(=O)N[C@@H](CCCCN)C(=O)N[C@@H](Cc1c[nH]c2ccccc12)C(=O)N[C@@H](C)C(=O)N[C@@H](CCCCN)C(=O)N[C@@H](CCCCN)C(N)=O")
1.55
>>> val("CC(C)C[C@H](NC(=O)CNC(=O)[C@H](CC(C)C)NC(=O)[C@H](CS)NC(=O)[C@H](CC(C)C)NC(=O)CNC(=O)[C@H](CC(C)C)NC(=O)[C@H](CCCCN)NC(=O)[C@@H](N)CCCCN)C(=O)N[C@@H](CCCCN)C(=O)N[C@@H](CCCCN)C(N)=O")
1.81
>>> val("CC[C@H](C)[C@H](NC(=O)[C@H](CCCN=C(N)N)NC(=O)[C@@H](NC(=O)[C@@H](NC(=O)[C@@H](NC(=O)[C@H](CCCN=C(N)N)NC(=O)[C@@H](NC(=O)[C@H](CCCN=C(N)N)NC(=O)[C@@H](N)CCCN=C(N)N)[C@@H](C)CC)[C@@H](C)CC)[C@@H](C)CC)[C@@H](C)CC)C(=O)N[C@@H](CCCN=C(N)N)C(=O)N[C@@H](CCCN=C(N)N)C(N)=O")
0.60
